experiment: Volume of distribution at steady state in OFA rat at 5 mg/kg, iv
Format: ADME, organism-based
Parameters: dose 5 mg/kg, route intravenous
measurement.conditions: in vivo, read-out: Vdss
readout.type: Vd (L/kg)
I only need the number, in L/kg, no unit after it.

-- ask Give Vd for the following molecule: Cn1cc(C2=C(c3nc(N4CCNCC4)nc4ccccc34)C(=O)NC2=O)c2ccccc21
-- reply 10

====

target.entity: Protein kinase C eta type (Homo sapiens)
Sequence (P24723 whole entry): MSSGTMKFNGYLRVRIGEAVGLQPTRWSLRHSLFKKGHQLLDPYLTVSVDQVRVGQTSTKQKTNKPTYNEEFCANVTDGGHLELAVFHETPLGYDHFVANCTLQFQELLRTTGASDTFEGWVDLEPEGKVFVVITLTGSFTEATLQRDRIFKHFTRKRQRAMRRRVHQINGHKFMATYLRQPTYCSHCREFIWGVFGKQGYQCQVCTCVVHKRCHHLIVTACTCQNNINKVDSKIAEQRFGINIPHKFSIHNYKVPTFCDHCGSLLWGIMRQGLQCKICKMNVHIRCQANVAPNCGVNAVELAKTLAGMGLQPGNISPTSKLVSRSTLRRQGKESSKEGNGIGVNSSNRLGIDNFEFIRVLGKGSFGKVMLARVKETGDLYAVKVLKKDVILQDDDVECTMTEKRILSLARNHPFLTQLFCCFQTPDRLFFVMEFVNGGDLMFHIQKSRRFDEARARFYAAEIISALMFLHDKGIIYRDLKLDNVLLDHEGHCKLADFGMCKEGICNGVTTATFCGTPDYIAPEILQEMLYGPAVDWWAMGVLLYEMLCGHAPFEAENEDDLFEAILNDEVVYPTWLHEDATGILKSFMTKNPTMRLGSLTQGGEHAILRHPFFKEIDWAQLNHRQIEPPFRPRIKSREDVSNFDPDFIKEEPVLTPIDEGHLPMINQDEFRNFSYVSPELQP
readout.type: IC50 (nM)
Express the result in nM but write the number alone.

| smi | readout.type | observed.result |
| --- | --- | --- |
| CN1CCN(c2cc3ccccc3c(C3=C(c4c[nH]c5ccccc45)C(=O)NC3=O)n2)CC1 | IC50 | 6.2 |

Next compound, IC50 to be filled in.
-- ask Report IC50 from Protein kinase C eta type (Homo sapiens) testing of CN1CCN(c2nc(C3=C(c4c[nH]c5cc(Cl)ccc45)C(=O)NC3=O)c3ccccc3n2)CC1
-- reply 19

====

experiment: Total plasma clearance in cynomolgus monkey at 5 mg/kg, iv
Format: ADME, organism-based, Macaca fascicularis
Design: dose 5 mg/kg, route intravenous
readout.type: clearance (mL/min/kg)
Just the number please, in mL/min/kg, no unit attached.

-- ask Consider the compound CN1CCN(c2nc(C3=C(c4c[nH]c5ccccc45)C(=O)NC3=O)c3ccccc3n2)CC1 . State its measured clearance.
-- reply 23

====

experiment: Solubility of the compound in fed state simulated intestinal fluid at pH 5.8
Assay type: physicochemical
readout.type: solubility (µg/mL)
Give the number; µg/mL is assumed, so skip it.

-- ask Determine from records and report solubility for CN1CCN(c2nc(C3=C(c4c[nH]c5ccccc45)C(=O)NC3=O)c3ccccc3n2)CC1
-- reply 530

====

experiment: Intrinsic clearance in cynomolgus monkey liver microsomes at 20 mg/kg, po
Format: ADME, Macaca fascicularis, Microsome
Parameters: dose 20 mg/kg, route oral
measurement.conditions: read-out: CLH
readout.type: microsomal CLint (µL/min/mg)
Field: numeric (µL/min/mg). Do not append units.

-- ask Answer with the recorded microsomal CLint for the molecule listed here: CN1CCN(c2nc(C3=C(c4c[nH]c5ccccc45)C(=O)NC3=O)c3ccccc3n2)CC1 [SOTRASTAURIN]
-- reply 433

====

experiment: Total plasma clearance in Balb/c mouse at 5 mg/kg, iv
Format: ADME, organism-based
Design: dose 5 mg/kg, route intravenous
readout.type: clearance (mL/min/kg)
Give just the number in mL/min/kg; leave the unit off.

-- ask Query clearance for CN1CCN(c2nc(C3=C(c4c[nH]c5ccccc45)C(=O)NC3=O)c3ccccc3n2)CC1
-- reply 45

====

Documented IC50 across a set of compounds
Test system: Jurkat
experiment: Inhibition of human Jurkat cell activation assessed as TCR/CD28 stimulated inhibition of IL-2 secretion
Assay type: functional, cell-based
Report only the number, with the unit nM understood.

| smi | unit.descriptor | IC50 |
| --- | --- | --- |
| CN1CCN(c2cc(C3=C(c4c[nH]c5ccccc45)C(=O)NC3=O)c3ccccc3n2)CC1 | nM | 79 |

Next up:
-- ask Note down IC50 recorded for CN1CCN(c2cc3ccccc3c(C3=C(c4c[nH]c5ccccc45)C(=O)NC3=O)n2)CC1
-- reply 23

====

target.entity: Protein kinase C eta type (Homo sapiens)
pIC50: −log10 of the molar value.
The threshold is inclusive: pIC50 of exactly 8 counts as MET; values below receive NOT MET.

| smi | classification |
| --- | --- |
| Cc1ccc2nc(N3CCN(C)CC3)nc(C3=C(c4c[nH]c5ccccc45)C(=O)NC3=O)c2c1 | NOT MET |

-- ask Could you tell me if the measured pIC50 of CN1CCN(c2nc(C3=C(c4cn(C)c5ccccc45)C(=O)NC3=O)c3ccccc3n2)CC1 reaches 8 or more?
-- reply NOT MET

-- ask pIC50 >= 8 for CN1CCN(c2nc(C3=C(c4c[nH]c5ccccc45)C(=O)NC3=O)c3cc(F)ccc3n2)CC1 ?
-- reply MET
